Molecular target: human TGR5 (h-TGR5) (Homo sapiens, UniProt Q8TDU6)
Construct: expressed in transfected cells
Sequence (Q8TDU6 1-330): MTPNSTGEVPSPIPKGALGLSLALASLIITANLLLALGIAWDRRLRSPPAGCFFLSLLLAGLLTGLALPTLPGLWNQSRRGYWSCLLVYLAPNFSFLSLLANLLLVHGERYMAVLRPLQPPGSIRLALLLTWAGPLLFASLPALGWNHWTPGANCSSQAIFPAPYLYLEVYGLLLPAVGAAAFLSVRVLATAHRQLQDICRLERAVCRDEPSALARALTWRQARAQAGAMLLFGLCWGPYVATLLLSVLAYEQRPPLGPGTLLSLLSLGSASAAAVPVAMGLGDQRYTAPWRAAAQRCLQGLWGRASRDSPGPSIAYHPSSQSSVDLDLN
Experiment: TGR5/CRE-Luciferiase Assay (HEK 293 hTGR5/CRE-Luc cells)
Format: cell-based
Conditions: h-TGR5 CRE-Luc EC50, Table 1; read-out: CRE-Luc (EC50)
Listed here: items and their measured EC50.
quantity-measured: EC50

smiles-input	quantity-measured	recorded-result
COc1ccc(C(C)(C)c2cnc(SCc3c(F)cc(-c4nnn[nH]4)cc3F)n2-c2ccc(F)cc2)cc1Cl	EC50	< 100 nM
CC(C)(c1ccc(Cl)c(Cl)c1)c1cnc(SCc2ccc(C(=O)O)c(F)c2)n1-c1ccc(F)cc1	EC50	100 to 1000 nM
COc1cc(-n2c(C(C)(C)c3ccc(Cl)c(Cl)c3)cnc2SCc2ccc(S(=O)(=O)NC(=O)NN3CCOCC3)cc2Cl)ccc1F	EC50	100 to 1000 nM
CC(C)(c1ccc(Cl)c(Cl)c1)c1cnc(S(=O)(=O)Cc2c(F)cccc2Cl)n1-c1ccc(F)cc1Cl	EC50	1000 to 10000 nM
CC(C)(c1ccc(F)c(F)c1)c1cnc(SCc2ccc(S(=O)(=O)NC(=O)NN3CCCC3)cc2Cl)n1-c1ccc(F)c(Cl)c1	EC50	100 to 1000 nM
COc1cc(-n2c(C(C)(C)c3ccc(Cl)c(Cl)c3)cnc2SCc2ccc(CCCNC(=N)N)c(C(=O)O)c2)ccc1F	EC50	100 to 1000 nM
CC(C)(c1ccc(Cl)c(Cl)c1)c1cnc(SCc2ccc(F)c(NC(=N)N)c2)n1-c1ccc(F)cc1	EC50	100 to 1000 nM
CC(C)(c1ccc(Cl)c(Cl)c1)c1cnc(SCc2ccc(C(N)=O)c(Cl)c2)n1-c1ccc(F)cc1	EC50	100 to 1000 nM
CC(C)(c1ccc(Cl)c(Cl)c1)c1cnc(SCc2ccc(-c3nnn[nH]3)c(F)c2)n1-c1ccc(F)cc1	EC50	100 to 1000 nM
CC(C)(c1ccc(Cl)c(Cl)c1)c1cnc(SCC2CCN(c3nnn[nH]3)CC2)n1-c1ccc(F)c(Cl)c1	EC50	< 100 nM
CC(C)(c1ccc(Cl)c(Cl)c1)c1cnc(SCc2ccc(-c3nnn[nH]3)cc2F)n1-c1ccc(F)cc1	EC50	100 to 1000 nM
COc1cc(C(C)(C)c2cnc(SCc3ccc(S(=O)(=O)NC(=O)NCCC(=O)O)cc3Cl)n2-c2ccc(F)cc2)ccc1Cl	EC50	100 to 1000 nM
COc1ccc(C(C)(C)c2cnc(SCc3ccc(Cl)c(-c4nnn[nH]4)c3)n2-c2ccc(F)cc2)cc1Cl	EC50	< 100 nM
CC(C)(c1ccc(S(C)(=O)=O)cc1)c1cnc(SCc2c(F)cc(C(=O)O)cc2F)n1-c1ccc(F)c(F)c1	EC50	1000 to 10000 nM
CC(C)(c1ccc(Cl)c(Cl)c1)c1cnc(SCc2c(F)cc(C(=O)O)cc2F)n1-c1ccc(F)c(CO)c1	EC50	100 to 1000 nM
CC(C)(c1ccc(Cl)c(Cl)c1)c1cnc(SCc2c(F)cccc2F)n1-c1ccc(F)cc1	EC50	< 100 nM
CC(C)(c1ccc(Cl)c(Cl)c1)c1cnc(SCc2c(F)cccc2CO)n1-c1ccc(F)cc1	EC50	100 to 1000 nM
COc1ccc(C(C)(C)c2cnc(SCc3c(F)cc(C(=O)O)cc3Cl)n2-c2ccc(F)cc2)cc1Cl	EC50	< 100 nM
COc1cc(C(C)(C)c2cnc(SCc3ccc(S(=O)(=O)NC(=O)NN4CCCC4)cc3Cl)n2-c2ccc(F)cc2)ccc1S(N)(=O)=O	EC50	100 to 1000 nM
COc1ccc(C(C)(C)c2cnc(S(=O)(=O)CCc3ccc(F)cc3Cl)n2-c2ccc(F)cc2)cc1OC	EC50	< 100 nM
CC(C)(c1ccc(Cl)c(Cl)c1)c1cnc(SCc2cc(S(N)(=O)=O)c(Cl)cc2Cl)n1-c1ccc(F)cc1	EC50	< 100 nM
CC(C)(C(=O)O)c1ccc(F)c(CSc2ncc(C(C)(C)c3ccc(Cl)c(Cl)c3)n2-c2ccc(F)cc2)c1	EC50	1000 to 10000 nM
COc1cc(C(C)(C)c2cnc(SCc3c(F)cc(OCCCNC(=N)N)cc3F)n2-c2ccc(F)cc2)ccc1F	EC50	< 100 nM
CCOC(=O)NS(=O)(=O)c1ccc(CSc2ncc(C(C)(C)c3ccc(OC)c(Cl)c3)n2-c2ccc(F)cc2)c(Cl)c1	EC50	< 100 nM
